Protein target, amino acids: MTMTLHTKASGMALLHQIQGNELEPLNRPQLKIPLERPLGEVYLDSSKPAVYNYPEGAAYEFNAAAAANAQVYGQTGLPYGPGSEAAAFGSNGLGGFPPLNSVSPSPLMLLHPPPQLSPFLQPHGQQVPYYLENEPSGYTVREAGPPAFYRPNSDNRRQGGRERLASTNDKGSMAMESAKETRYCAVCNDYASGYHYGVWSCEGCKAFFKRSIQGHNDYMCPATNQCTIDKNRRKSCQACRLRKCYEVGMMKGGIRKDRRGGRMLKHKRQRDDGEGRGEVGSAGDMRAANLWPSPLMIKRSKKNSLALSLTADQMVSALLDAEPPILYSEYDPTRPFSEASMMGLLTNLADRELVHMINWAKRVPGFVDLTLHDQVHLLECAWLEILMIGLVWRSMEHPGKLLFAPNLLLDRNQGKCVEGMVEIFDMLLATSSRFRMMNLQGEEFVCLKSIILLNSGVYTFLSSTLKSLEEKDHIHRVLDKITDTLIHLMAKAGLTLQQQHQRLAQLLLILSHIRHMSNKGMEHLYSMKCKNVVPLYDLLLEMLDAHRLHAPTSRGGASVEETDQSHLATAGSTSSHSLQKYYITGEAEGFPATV
measured-attribute: IC50

- molecule: "CC1(CO)CC=C(c2ccc(O)cc2)CC1 (centres unmarked) [Compound 25]"
  measured: "450 nM"

Consider the following items and state reported IC50 for each.
1. COc1ccc(C2=C(c3ccc(OC)cc3)CC(CO)C(CO)C2)cc1 (centres unmarked) [Compound 26]
2. CC1(CO)CCC(c2ccc(O)cc2)=C(c2ccc(O)cc2)C1 (centres unmarked) [Compound 27]
3. CCC1C(C)C(CO)CC(c2ccc(OC)cc2)C1c1ccc(O)cc1 (centres unmarked) [Compound 4]
4. CC1C(CO)CC=C(c2ccc(O)cc2)C1Cc1ccc(OCCN2CCCCC2)cc1 (centres unmarked) [Compound 74]

1. > 10000 nM
2. 500 nM
3. > 10000 nM
4. 370 nM

====

// each record: one item and its log10 of IC50 for hER-β (Homo sapiens)
On a log10 scale: recorded IC50, unit µM.

See these solved cases before continuing.
- molecule: "CC1C(CO)CC=C(c2ccc(O)cc2)C1Cc1ccc(OCCN2CCCCC2)cc1 (stereo not drawn) [Compound 74]"
  measured-attribute: "log10 of IC50"
  measured: -0.42
- molecule: "CCC1C(C)C(CO)CC(c2ccc(OC)cc2)C1c1ccc(O)cc1 (stereo not drawn) [Compound 4]"
  measured-attribute: "log10 of IC50"
  measured: 0.20
- molecule: "CC1(CO)CCC(c2ccc(O)cc2)=C(c2ccc(O)cc2)C1 (stereo not drawn) [Compound 27]"
  measured-attribute: "log10 of IC50"
  measured: 0.18
- molecule: "COc1ccc(C2=C(c3ccc(OC)cc3)C[C@H]3[C@H](CC[C@H]3O)C2)cc1 [Compound 57]"
  measured-attribute: "log10 of IC50"
  measured: 0.69
- molecule: "c1ccc(C2=C(c3ccccc3)CC3COCC3C2)cc1 (stereo not drawn) [Compound 52]"
  measured-attribute: "log10 of IC50"
  measured: 0.76
- molecule: "CC1(CO)CC=C(c2ccc(O)cc2)CC1 (stereo not drawn) [Compound 25]"
  measured-attribute: "log10 of IC50"
  measured: -0.46

Pending molecule:
Give reported log10 of IC50 value for CC1=C(C)CC(C)(CO)C(C)C1 (stereo not drawn) [Compound 36]
0.84
